# Particulars: in n-butanol, 328.15 K
Property name: solubility (mole fraction)

Example cases with answers are listed next.
*Q* So what's the measured solubility (mole fraction) for this one? O=C(/C=C/c1cn(-c2ccccc2)nc1-c1cccc([N+](=O)[O-])c1)c1nc2ccccc2[nH]1
*A* 0.000445

*Q* So what's the measured solubility (mole fraction) for this one? COc1cccc(-c2nn(-c3ccccc3)cc2/C=C/C(=O)c2nc3ccccc3[nH]2)c1
*A* 0.000311

*Q* So what's the measured solubility (mole fraction) for this one? COc1ccc(-c2nn(-c3ccccc3)cc2/C=C/C(=O)c2nc3ccccc3[nH]2)cc1OC
*A* 0.00039

*Q* So what's the measured solubility (mole fraction) for this one? O=C(/C=C/c1cn(-c2ccccc2)nc1-c1ccccc1)c1nc2ccccc2[nH]1
*A* 0.000465

(I) O=C(/C=C/c1cn(-c2ccccc2)nc1-c1ccc(Cl)cc1)c1nc2ccccc2[nH]1
(II) O=C(/C=C/c1cn(-c2ccccc2)nc1-c1ccccc1Cl)c1nc2ccccc2[nH]1
(III) COc1ccc(-c2nn(-c3ccccc3)cc2/C=C/C(=O)c2nc3ccccc3[nH]2)cc1
*Q* Sort these compounds on solubility (mole fraction) so the largest reading comes first. The reply should contain the labels ordered as requested.
*A* III, II, I
(III: 0.00151, II: 0.000533, I: 0.000295)

###

# Particulars: in n-butanol, 308.15 K
Property name: solubility (mole fraction)

Example cases with answers are listed next.
*Q* So what's the measured solubility (mole fraction) for this one? COc1cccc(-c2nn(-c3ccccc3)cc2/C=C/C(=O)c2nc3ccccc3[nH]2)c1
*A* 0.000211

*Q* So what's the measured solubility (mole fraction) for this one? O=C(/C=C/c1cn(-c2ccccc2)nc1-c1ccc(Cl)cc1)c1nc2ccccc2[nH]1
*A* 0.000201

*Q* So what's the measured solubility (mole fraction) for this one? O=C(/C=C/c1cn(-c2ccccc2)nc1-c1ccccc1)c1nc2ccccc2[nH]1
*A* 0.000299

*Q* So what's the measured solubility (mole fraction) for this one? O=C(/C=C/c1cn(-c2ccccc2)nc1-c1ccccc1Cl)c1nc2ccccc2[nH]1
*A* 0.000354

*Q* So what's the measured solubility (mole fraction) for this one? COc1ccc(-c2nn(-c3ccccc3)cc2/C=C/C(=O)c2nc3ccccc3[nH]2)cc1OC
*A* 0.000244

(1) O=C(/C=C/c1cn(-c2ccccc2)nc1-c1cccc([N+](=O)[O-])c1)c1nc2ccccc2[nH]1
(2) COc1ccc(-c2nn(-c3ccccc3)cc2/C=C/C(=O)c2nc3ccccc3[nH]2)cc1
*Q* Could you tell me which of these two has the smaller solubility (mole fraction) figure? First: 1 Second: 2 Your answer should be the label of the entry you select.
*A* 1

###

# Particulars: in acetonitrile, 323.15 K
Property name: solubility (mole fraction)

*Q* So what's the measured solubility (mole fraction) for this one? COc1ccc(-c2nn(-c3ccccc3)cc2/C=C/C(=O)c2nc3ccccc3[nH]2)cc1
*A* 0.000301

(A) O=C(/C=C/c1cn(-c2ccccc2)nc1-c1cccc([N+](=O)[O-])c1)c1nc2ccccc2[nH]1
(B) O=C(/C=C/c1cn(-c2ccccc2)nc1-c1ccccc1)c1nc2ccccc2[nH]1
*Q* Could you tell me which of these two has the smaller solubility (mole fraction) figure? First: A Second: B Your answer should be the label of the entry you select.
*A* B
(B: 0.00012, A: 0.000216)

(1) O=C(/C=C/c1cn(-c2ccccc2)nc1-c1ccccc1Cl)c1nc2ccccc2[nH]1
(2) COc1cccc(-c2nn(-c3ccccc3)cc2/C=C/C(=O)c2nc3ccccc3[nH]2)c1
*Q* Could you tell me which of these two has the smaller solubility (mole fraction) figure? First: 1 Second: 2 Your answer should be the label of the entry you select.
*A* 2
